Tested on: Saccharomyces cerevisiae
Assay: protein stability index of tFT-peptide fusion (C-terminal peptide) (PSI (0-1 scale)); higher = more stable (slower turnover)
Details: genetic background: das1 deletion; temperature: 30 C
metric name: protein stability index
Number only, please.

// fetch Saccharomyces cerevisiae protein stability index for PFSLCFVFPFFF 0.567

Now try VAWCVWCWWWAV . 0.209

Now try WSCFLLLLSLSL . 0.417

====

Test system: Saccharomyces cerevisiae
Assay: protein stability index of tFT-peptide fusion (C-terminal peptide) (PSI (0-1 scale)); higher = more stable (slower turnover)
Conditions: genetic background: wild type; temperature: 30 C
This listing pairs sequences with measured protein stability index.

INSERT INTO measurements (residue_codes, reading) VALUES
  ('TWIKVPVERTRP', 0.683);

Quick one: protein stability index of NQPPFPLRRPPT ? 0.699

Now try PPPRHVPLPPLT . 0.71

Now try LPLYYPPGTREL . 0.708

====

Tested on: Saccharomyces cerevisiae
Test: protein stability index of tFT-peptide fusion (C-terminal peptide) (PSI (0-1 scale)); higher = more stable (slower turnover)
Details: genetic background: wild type; temperature: 30 C
Could you label it Condition met if measured protein stability index is 0.5 or higher, and Condition not met otherwise?

Some solved entries appear below for comparison.
INSERT INTO measurements (residue_codes, class_assignment) VALUES
  ('VVPAVLFAFLLV [YDL118W C-terminal 12 aa]', 'Condition not met'),
  ('RLRKWLSTFVHQ [YNL034W C-terminal 12 aa]', 'Condition not met'),
  ('FKELLGYTLVSA [VSB1 C-terminal 12 aa]', 'Condition not met'),
  ('EDADNDNDYDHE [SAP155 C-terminal 12 aa]', 'Condition met'),
  ('QHSRGSPNNSNN [YKU80 C-terminal 12 aa]', 'Condition met'),
  ('RYIYAYINAQVQ [YHL005C C-terminal 12 aa]', 'Condition not met');

Kindly review the next sequence as well.
Check the entry KLYNYLLSIEVY [YLR123C C-terminal 12 aa] : does protein stability index equal or exceed 0.5? Condition not met

====

System: Saccharomyces cerevisiae
Test: protein stability index of tFT-peptide fusion (C-terminal peptide) (PSI (0-1 scale)); higher = more stable (slower turnover)
Details: genetic background: cdc53-1; temperature: 37 C
Could you label it label 1 if measured protein stability index is 0.7 or higher, and label 0 otherwise?

INSERT INTO measurements (residue_codes, class_assignment) VALUES
  ('GCYWPKTLGILC', 'label 0'),
  ('CALFLLSSPSPT', 'label 1'),
  ('FSLLFVRFCFFL', 'label 0'),
  ('QRTNTIINKRIV', 'label 1'),
  ('LFWTLSKYLIIC', 'label 0'),
  ('KLRIVYAKVVCS', 'label 0');

Check the entry PLVLPPINLFLV : does protein stability index equal or exceed 0.7? label 1

Now try VVVVWVVVEIVR . label 0

Now try FHRSVVRLWLRN . label 0

====

Test system: Saccharomyces cerevisiae
Experiment: protein stability index of tFT-peptide fusion (C-terminal peptide) (PSI (0-1 scale)); higher = more stable (slower turnover)
Details: genetic background: cdc53-1; temperature: 37 C
metric name: protein stability index

// fetch Saccharomyces cerevisiae protein stability index for RRRGIYARASVV 0.728

Now try CAGRQGRERGHT . 0.722

Now try LLHQSVHSHIPP . 0.72

Now try LSFLSLIFSICY . 0.449

====

Tested on: Saccharomyces cerevisiae
Assay: protein stability index of tFT-peptide fusion (C-terminal peptide) (PSI (0-1 scale)); higher = more stable (slower turnover)
Settings: genetic background: cdc53-1; temperature: 37 C
metric name: protein stability index
Number only, please.

Worked cases, protein stability index given:
INSERT INTO measurements (residue_codes, reading) VALUES
  ('RRAVGLANFTIK', 0.773),
  ('FCFCLVLRVFLG', 0.171),
  ('CRCLFVVKNWLS', 0.706),
  ('LTCTSTPMACRV', 0.589);

From here, focus on the item given below.
Quick one: protein stability index of LNLACCWFVRCR ? 0.339

====

This listing pairs sequences with measured protein stability index.
Tested on: Saccharomyces cerevisiae
Test: protein stability index of tFT-peptide fusion in wild type (PSI (0-1 scale)); higher = more stable (slower turnover)
Conditions: genetic background: wild type
Number only, please.

Worked cases, protein stability index given:
INSERT INTO assay_data (residue_codes, reading) VALUES
  ('PDKRTHLIKLLN', 0.0881),
  ('CLVSLPILLFFL', 0.293);

From here, focus on the item given below.
Quick one: protein stability index of RSLRVLKPLYFR ? 0.304

====

This listing pairs sequences with measured protein stability index.
Tested on: Saccharomyces cerevisiae
Assay: protein stability index of tFT-peptide fusion (C-terminal peptide) (PSI (0-1 scale)); higher = more stable (slower turnover)
Details: genetic background: das1 deletion; temperature: 30 C
Number only, please.

INSERT INTO results (residue_codes, metric_name, reading) VALUES
  ('PKFSKPDPLKRD [SAC1 C-terminal 12 aa]', 'protein stability index', 0.72),
  ('HELKTHLPLNLI [SMT1 C-terminal 12 aa]', 'protein stability index', 0.707),
  ('NGHVSKKAKVTK [LYS21 C-terminal 12 aa]', 'protein stability index', 0.689);

Quick one: protein stability index of QTDNTSATNQLL [YSP2 C-terminal 12 aa] ? 0.7

====

System: Saccharomyces cerevisiae
Experiment: protein stability index of tFT-peptide fusion (C-terminal peptide) (PSI (0-1 scale)); higher = more stable (slower turnover)
Settings: genetic background: wild type; temperature: 30 C
metric name: protein stability index
Number only, please.

Worked cases, protein stability index given:
INSERT INTO measurements (residue_codes, tested_on, metric_name, reading) VALUES
  ('GGLSGGMRIEDS', 'Saccharomyces cerevisiae', 'protein stability index', 0.686),
  ('PPYPRRWAPLGP', 'Saccharomyces cerevisiae', 'protein stability index', 0.687),
  ('NSRDCILQARET', 'Saccharomyces cerevisiae', 'protein stability index', 0.713);

Quick one: protein stability index of VPPDTAPPPPRR ? 0.699

Now try FPTFSPRPHPLS . 0.72

Now try PSALSEQQANGF . 0.684

Now try CLYVGSRPPRSA . 0.71

Now try LWLDKSREGSLG . 0.701

Now try HSRPAAPCRSPL . 0.679

Now try IEVSRRDLRIHL . 0.695

Now try PLRDIRSVRYSS . 0.685

Now try YYLQPTCLCFWE . 0.698

Now try VRIARSYERGGK . 0.701

Now try WAFGSTVSSGIV . 0.689

Now try PPALRPPPPPPP . 0.693

====

This listing pairs sequences with measured protein stability index.
Tested on: Saccharomyces cerevisiae
Assay: protein stability index of tFT-peptide fusion (C-terminal peptide) (PSI (0-1 scale)); higher = more stable (slower turnover)
Conditions: genetic background: doa10 deletion; temperature: 30 C
Number only, please.

INSERT INTO results (residue_codes, reading) VALUES
  ('FLSLPLFILFLS', 0.122);

// fetch Saccharomyces cerevisiae protein stability index for LSIGCRCLWGWF 0.577

Now try WEISNFFGCFIG . 0.325

Now try RLSLCLAVLFLV . 0.116

Now try HDLRRRVVSVMV . 0.258

Now try VAIMSIWLVYML . 0.331

Now try WRLRIAAVVRSS . 0.123

Now try GLSWRLVWVVII . 0.0916

Now try GLIICRRCLWCC . 0.172

Now try PTYTKYRTRQIN . 0.0947

====

Test system: Saccharomyces cerevisiae
Assay: protein stability index of tFT-peptide fusion in wild type (PSI (0-1 scale)); higher = more stable (slower turnover)
Settings: genetic background: wild type
Could you label it yes (1) if measured protein stability index is 0.1 or higher, and no (0) otherwise?

INSERT INTO assay_data (residue_codes, tested_on, class_assignment) VALUES
  ('VRGAVDGWRLVG', 'Saccharomyces cerevisiae', 'yes (1)'),
  ('PSLAASFWRVQG', 'Saccharomyces cerevisiae', 'yes (1)'),
  ('KKHKKGQKQQIN', 'Saccharomyces cerevisiae', 'yes (1)'),
  ('LKILRQNMNHQN', 'Saccharomyces cerevisiae', 'yes (1)'),
  ('FSLAASFWRVVG', 'Saccharomyces cerevisiae', 'yes (1)'),
  ('LVVYLSQVACIN', 'Saccharomyces cerevisiae', 'no (0)'),
  ('RSLRVLLPLYFC', 'Saccharomyces cerevisiae', 'no (0)'),
  ('ARWRVGLHRGAS', 'Saccharomyces cerevisiae', 'yes (1)');

Check the entry FSMRMTFRYWVN : does protein stability index equal or exceed 0.1? no (0)

Now try VRGAVGVWRLVG . yes (1)

Now try PDKTNHLIKLLN . yes (1)

Now try FKMRWTFRYWVN . yes (1)

Now try LVVYLSCVACIK . no (0)

Source listed as the supplement of paper PMC10724198.
